Experiment: Cytotoxicity assay (MTT)
Assay type: cell-based
Conditions: human; HeLa cell line KB3.1; MTT, five days; NA = No activity; a = Proliferation inhibition, no altered or dead cells
Value Type: IC50 (µg/mL)
Just the number in µg/mL, nothing appended.

Tell me the measured IC50 of COc1cc(O)c2c(O)c3c(cc2c1-c1c(OC)cc(O)c2c(O)c4c(cc12)CC(C)OC4=O)CC(C)OC3=O (stereo not shown) [Pigmentosin A (1), pigmentosin A] , please. 17

----------
Assay: Cytotoxicity assay (MTT)
Assay type: cell-based
Settings: mouse, Murine fibroblast cell line L929, five days, NA = No activity
Value Type: IC50 at 5 days (ng/mL)
Just the number in ng/mL, nothing appended.

Tell me the measured IC50 at 5 days of `C/C(=C\c1csc(C)n1)[C@@H]1C[C@@H]2O[C@@H]2CCC[C@H](C)[C@H](O)[C@@H](C)C(=O)C(C)(C)[C@@H](O)CC(=O)O1` , please. 3.8

----------
Experiment: Cytotoxicity assay (MTT)
Type: cell-based
Details: human; HeLa cell line KB3.1; MTT, five days; NA = No activity; a = Proliferation inhibition, no altered or dead cells; read-out: Cytotoxicity (IC50) KB3.1
Value Type: IC50 at 5 days (ng/mL)
Just the number in ng/mL, nothing appended.

Tell me the measured IC50 at 5 days of C/C(=C\c1csc(C)n1)[C@@H]1C[C@@H]2O[C@]2(C)CCC[C@H](C)[C@H](O)[C@@H](C)C(=O)C(C)(C)[C@@H](O)CC(=O)O1 [Epothilone B, epothilone B, reference compound] , please. 0.22

----------
Experiment: Cytotoxicity assay (MTT)
Format: cell-based
Details: human, KB3.1 cells (HeLa, cervix carcinoma cell line); HeLa cell line KB3.1; MTT, five days; NA = No activity; a = Proliferation inhibition, no altered or dead cells; read-out: Cytotoxicity (IC50) KB3.1
Value Type: IC50 at 5 days
Provide a numeric answer, followed by its unit.

Tell me the measured IC50 at 5 days of CCCC[C@H](C)[C@@H]1CC(=O)N[C@@H](Cc2ccc(O)cc2)C(=O)N[C@@H](C)C(=O)N[C@H](CC(C)C)C(=O)O1 [Beauverolide N (4), beauverolide N] , please. 16 µg/mL
